Origin of values: the supplement of paper PMC7877785

Recorded self-splicing fitness (ln), one value per entry.
Procedure Text: self-splicing fitness, log relative to wild type (ln ratio); higher = more splicing; Tetrahymena group I intron in knt gene, E. coli kanamycin selection, DiMSum; sequences stand for … in CUCUCU…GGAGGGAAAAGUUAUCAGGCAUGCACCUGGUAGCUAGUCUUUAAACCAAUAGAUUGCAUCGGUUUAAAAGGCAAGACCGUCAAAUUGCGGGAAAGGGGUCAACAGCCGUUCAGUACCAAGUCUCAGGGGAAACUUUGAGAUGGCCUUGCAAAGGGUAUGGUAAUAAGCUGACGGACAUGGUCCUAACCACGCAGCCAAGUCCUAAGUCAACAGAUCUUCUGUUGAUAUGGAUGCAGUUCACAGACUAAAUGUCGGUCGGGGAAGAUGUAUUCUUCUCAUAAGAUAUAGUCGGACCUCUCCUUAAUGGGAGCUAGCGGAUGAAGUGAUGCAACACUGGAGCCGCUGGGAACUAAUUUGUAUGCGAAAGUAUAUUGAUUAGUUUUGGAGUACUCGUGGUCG;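 also: selection with 25 µg/mL kanamycin versus none on LB agar overnight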
Condition Info: 30 °C
Just the number, please, no unit attached.

Annotate the sequence CGCCAGCAAUAUUACGGGCU with its measured self-splicing fitness (ln). -3.79

Annotate the sequence UCGAAGCAAUAUUACGGGGU with its measured self-splicing fitness (ln). -4.05

Annotate the sequence CCCAAGCAAUAUUACGCCAG with its measured self-splicing fitness (ln). -2.9

Annotate the sequence AGACAGCAAUAUUACGGAGG with its measured self-splicing fitness (ln). -3.35

* * *

Procedure Text: self-splicing fitness, log relative to wild type (ln ratio); higher = more splicing; Tetrahymena group I intron in knt gene, E. coli kanamycin selection, DiMSum; sequences stand for … in CUCUCU…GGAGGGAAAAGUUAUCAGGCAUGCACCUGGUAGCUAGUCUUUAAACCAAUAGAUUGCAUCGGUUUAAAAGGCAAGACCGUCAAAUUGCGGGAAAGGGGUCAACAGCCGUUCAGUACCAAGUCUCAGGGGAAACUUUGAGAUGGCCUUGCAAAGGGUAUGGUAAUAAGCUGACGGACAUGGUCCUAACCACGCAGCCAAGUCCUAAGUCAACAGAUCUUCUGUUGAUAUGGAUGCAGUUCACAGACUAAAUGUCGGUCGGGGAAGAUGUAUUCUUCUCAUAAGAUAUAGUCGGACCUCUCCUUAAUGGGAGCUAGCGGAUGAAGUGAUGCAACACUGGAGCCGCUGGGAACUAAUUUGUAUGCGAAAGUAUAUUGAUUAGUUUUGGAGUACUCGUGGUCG
Condition Info: 30 °C
The label depends only on self-splicing fitness (ln): MET if it is at least -3, NOT MET if it is smaller.

Known results for sequences:
> print(dat)
          residue.codes  category.label
1  UCCCAGCAAUAUUACGUUGA             MET
2  AUCUAGCAAUAUUACGUGUG             MET
3  AUAAAGCAAUAUUACGCCGA             MET

Evaluate CAAAAGCAAUAUUACGAGGG : self-splicing fitness (ln) at minimum -3? MET

Evaluate AAAAAGCAAUAUUACGCGGG : self-splicing fitness (ln) at minimum -3? MET

Evaluate UUUAAGCAAUAUUACGAGAG : self-splicing fitness (ln) at minimum -3? MET

Evaluate CCUAAGCAAUAUUACGGUCG : self-splicing fitness (ln) at minimum -3? MET

Evaluate GCUUAGCAAUAUUACGUUGA : self-splicing fitness (ln) at minimum -3? MET

Evaluate UUGUAGCAAUAUUACGGUGG : self-splicing fitness (ln) at minimum -3? MET

Evaluate UUACAGCAAUAUUACGGGUU : self-splicing fitness (ln) at minimum -3? NOT MET

Evaluate AAUAAGCAAUAUUACGUUCG : self-splicing fitness (ln) at minimum -3? MET

Evaluate ACAAAGCAAUAUUACGGCGU : self-splicing fitness (ln) at minimum -3? MET

Evaluate CGUGAGCAAUAUUACGACCC : self-splicing fitness (ln) at minimum -3? MET

Evaluate AGCAAGCAAUAUUACGUAGU : self-splicing fitness (ln) at minimum -3? NOT MET

Evaluate UGAAAGCAAUAUUACGUUCA : self-splicing fitness (ln) at minimum -3? MET

Evaluate GAAAAGCAAUAUUACGAAAA : self-splicing fitness (ln) at minimum -3? MET

Evaluate UUUGAGCAAUAUUACGCUCA : self-splicing fitness (ln) at minimum -3? NOT MET

Evaluate UCAAAGCAAUAUUACGUUCG : self-splicing fitness (ln) at minimum -3? MET

Evaluate AGAUAGCAAUAUUACGAGUG : self-splicing fitness (ln) at minimum -3? MET
